# target: PiDHODH (dihydroorotate dehydrogenase) (Phytophthora infestans, UniProt D0MUE3)
# Construct: gene PITG_01913
# Sequence (D0MUE3 55-424 limits assumed): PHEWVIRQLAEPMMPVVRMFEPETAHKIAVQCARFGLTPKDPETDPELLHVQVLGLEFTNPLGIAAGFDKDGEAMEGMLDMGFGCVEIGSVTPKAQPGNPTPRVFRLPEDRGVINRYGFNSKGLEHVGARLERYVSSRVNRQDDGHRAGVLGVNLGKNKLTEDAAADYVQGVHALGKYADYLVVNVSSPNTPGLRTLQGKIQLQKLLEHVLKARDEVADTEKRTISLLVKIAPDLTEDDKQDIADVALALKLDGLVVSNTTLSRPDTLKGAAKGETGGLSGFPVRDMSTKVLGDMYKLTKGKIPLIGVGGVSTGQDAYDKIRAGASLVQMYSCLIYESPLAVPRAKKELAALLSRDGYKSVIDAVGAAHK
# experiment.description: biochemical
# experimental.setup: read-out: Activity % PiDHODH
endpoint.name: activity at 500 µM (%)
Lab book: enter the figure in %, no units written.

Request: Report value only: activity at 500 µM, PiDHODH (dihydroorotate dehydrogenase) (Phytophthora infestans, UniProt D0MUE3), O=C1C(O)=C(CC=C(Cl)Cl)C(=O)c2ccccc21
Result: 30

Request: Report value only: activity at 500 µM, PiDHODH (dihydroorotate dehydrogenase) (Phytophthora infestans, UniProt D0MUE3), COc1c(-c2ccccc2)ccc(NC(=O)C(C#N)=C(C)O)c1Cl
Result: 2

Request: Report value only: activity at 500 µM, PiDHODH (dihydroorotate dehydrogenase) (Phytophthora infestans, UniProt D0MUE3), Cc1cc(Nc2cc(F)c(C(F)(F)F)c(F)c2)n2ncnc2n1
Result: 36

Request: Report value only: activity at 500 µM, PiDHODH (dihydroorotate dehydrogenase) (Phytophthora infestans, UniProt D0MUE3), COc1cc(-c2ccc(Nc3ccccc3C(=O)O)c(OC)c2)ccc1Nc1ccccc1C(=O)O
Result: 31

Request: Report value only: activity at 500 µM, PiDHODH (dihydroorotate dehydrogenase) (Phytophthora infestans, UniProt D0MUE3), O=C(O)C1=C(C(=O)Nc2ccc(-c3ccccc3)cc2)CCC1
Result: 23

Request: Report value only: activity at 500 µM, PiDHODH (dihydroorotate dehydrogenase) (Phytophthora infestans, UniProt D0MUE3), CC(O)=C(C#N)C(=O)Nc1ccc(-c2ccccc2)cc1Cl
Result: 1

---

# target: PiDHODH (dihydroorotate dehydrogenase) (Phytophthora infestans, UniProt D0MUE3)
endpoint.name: pIC50
Please report pIC50 as the negative decimal logarithm of the molar concentration, giving only the number.

Request: Return the recorded pIC50 value; entry: C/C(O)=C(\C#N)C(=O)Nc1ccc(C(F)(F)F)cc1
Result: 4.10
